- SUBJECT_OF_TEST: NHERF2_2, Q15599
- Sequence (Q15599 142-238): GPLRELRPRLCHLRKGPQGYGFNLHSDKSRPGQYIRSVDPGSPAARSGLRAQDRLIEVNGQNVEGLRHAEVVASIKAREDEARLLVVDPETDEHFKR
- MEASUREMENT_PROTOCOL: holdup assay
- Set-up: key: below the threshold = too weak to quantify, mostly under pKd 3.1 to 4
- CONDITION: plain residues with an end cap or a label only (N-terminal biotin on a linker: ado-ado)
MEASURE: pKd

Consider the worked cases shown below.
[[record]]
binder = "AKPSRISTVV [IQSEC2, Q5JU85]"
experimental_value = "below the threshold"

[[record]]
binder = "YLEPVLSSEL [ATP2A2, P16615;P16615-3]"
experimental_value = 4.46

[[record]]
binder = "LKVPPEERLI [CRB2, Q5IJ48]"
experimental_value = "below the threshold"

[[record]]
binder = "TASPAKETSF [SLC2A7, Q6PXP3]"
experimental_value = 4.66

[[record]]
binder = "LPAHHNATRL [SLC34A1, Q06495;Q06495-1]"
experimental_value = 4.83

[[record]]
binder = "QSARLWETSI [ADAM22, Q9P0K1]"
experimental_value = 3.83


With those in mind, consider the next binder.
### Prompt Item IPLDGETEEL [MYOZ1, Q9NP98] has what recorded pKd?
### Response 3.96
